System: SF-295 CNS
Assay: NCI tumour cell line growth inhibition, 48 h
Listing of entries alongside the reported TGI.

Illustrative cases are given below, each with its answer.
# compound, measured-property, reported-measurement
measured = [
    ("Cc1coc2c1CC1(C)C(CCC(O)C1C)C2 (centres undefined)", "TGI", "> 100 µM"),
    ("CC(=O)NC1=C(NCCC(C)C)C(=O)c2ccccc2C1=O", "TGI", "> 50 µM"),
    ("O=C1CCC23CC(C=CC=C12)n1c(=O)n(-c2ccccc2)c(=O)n13 (centres undefined)", "TGI", "> 100 µM"),
]

Now examine the next entry.
Quick check: TGI of Cc1ccc(NC2=C(Cl)C(=O)N(Cc3ccccc3)C2=O)cc1O ? 81.8 µM
